Assay: NCI Yeast Anticancer Drug Screen. Data for the wt1 strain (AID 149);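 also: 0% = growth of vehicle-treated wt1 cultures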
Conditions: S. cerevisiae wt1 strain (SPY 50644) growth inhibition; at 100.0 µM
Compounds without any hit were thinned out: in the full panel of roughly 79,000, 15% have a hit. Calls of active or inactive are those of the source. Rule as the data show it: active = growth inhibition above about 70%; inactive = the rest.
The categories you may choose from are yes (1) (active), no (0) (inactive)

For orientation, consider the following solved cases.
COMPOUND	LABEL VALUE
CCCCCCCCCCCCCCCCNC(=O)/C(=C\c1ccc(Cl)c(Cl)c1)NC(=O)c1ccccc1	no (0)
COc1ccc(/C=C(\NC(=O)c2ccccc2)C(=O)NN(C)c2ccnc3cc(Cl)ccc23)cc1OC	no (0)

Test call, this compound: C/C=C/[P+](c1ccccc1)(c1ccccc1)c1ccccc1
yes (1)

Test call, this compound: CN(C)CCNc1cccc2sc3ccc(O)cc3c(=O)c12
no (0)

====

Experiment: NCI Yeast Anticancer Drug Screen. Data for the sgs1 mgt1 strain (AID 161);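 also: 0% = growth of cultures given vehicle only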
Settings: S. cerevisiae sgs1 mgt1 strain, at 50.0 µM
Procedure: Growth inhibition of yeast strains with defined genetic alterations is measured as a screen for potential anti-cancer activity. Selected strains with alterations in DNA damage repair or cell cycle control were exposed to compounds and growth inhibition was measured relative to vehicle treated controls. The strain used in this assay is sgs1 mgt1
About 79,000 compounds went through this panel and 15% of them were active in at least one assay; those are over-represented in the sample as a whole. Calls of active or inactive are those of the source. Cut-off read from the data, not from the text of the source: active = growth inhibition above about 70%; inactive = the rest.
The categories you may choose from are 1 (active), -1 (inactive)

For orientation, consider the following solved cases.
COMPOUND	LABEL VALUE
O=Nn1c2ccccc2c2cc([N+](=O)[O-])ccc21	1
O=C1C=CC(=O)N1c1ccc(N2C(=O)C=CC2=O)cc1	1
CC(=O)Oc1ccc(C(=O)c2ccccc2)c(O)c1	1
CCCCCCCCCCCCCC(=O)OC(C)CCC1CCCO1 (configuration not stated)	-1
CN(C)CCNc1cccc2sc3ccc(O)cc3c(=O)c12	-1
On1cnc(=S)c2[nH]cnc21	-1
CC(C)(C)[OH+][O-].[O-]c1ccc(Cl)cc1C=Nc1ccc(Cl)cc1[O-].[O]=[V]	1
CCOC(=O)c1csc(Br)n1	1

Test call, this compound: c1ccc2c(c1)ccc1c3ccncc3ccc21
1

Test call, this compound: CC(=O)[C@]1(O)Cc2c(O)c3c(c(O)c2[C@@H](OC2CC(N)C(O)C(C)O2)C1)C(=O)c1c(OCc2ccccc2)cccc1C3=O (some centres not stated)
-1

Test call, this compound: COC(=O)c1n[nH]c(C)c1N=NN(C)CCC#N
1

Test call, this compound: Cn1ncc2cc3c(Nc4ccc(Cl)cc4)cccc3nc21
-1

====

Test: NCI Yeast Anticancer Drug Screen. Data for the rad52 strain (AID 147);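 also: 0% = growth of vehicle-treated control cultures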
Conditions: S. cerevisiae rad52 mutant growth inhibition; at 3.7 µM; active compounds read high
The panel holds about 79,000 compounds, 15% with a hit somewhere; the sample as a whole holds those more often.
Measured growth inhibition values are reported for all entries that follow.
The reply should be a number in %, with the unit left off.

COMPOUND	UNITS TEXT	growth inhibition
O=C1c2ccccc2C(=O)c2cc(S(=O)(=O)Nc3ccccc3)ccc21	%	7
c1ccc(N2N=C3N(c4ccccc4)C2N3c2ccccc2)cc1	%	-14
CCC(c1ccc(O)cc1)C(CC)c1ccc(OCCN)cc1 (configuration not stated)	%	0

I am curious: what growth inhibition value has been reported for O=c1[nH]cc(/C=N\Nc2ccccc2)c(=O)[nH]1 ?
6

I am curious: what growth inhibition value has been reported for O=C1c2c(O)cccc2-c2nn(CCNCCO)c3ccc(NCCNCCO)c1c23 ?
43

I am curious: what growth inhibition value has been reported for O=Nc1ccc(Nc2ccccc2)cc1 ?
-58

I am curious: what growth inhibition value has been reported for CN(C)c1ccc(/C=C/c2ccnc3ccccc23)cc1N ?
-8

I am curious: what growth inhibition value has been reported for CCCCCC#CCOC(=O)C(=[N+]=[N-])P(=O)(c1ccccc1)c1ccccc1 ?
16

====

Test: NCI Yeast Anticancer Drug Screen. Data for the mec2-1 strain (AID 157)
Settings: S. cerevisiae mec2-1 strain, at 50.0 µM, active compounds read high
Protocol: Growth inhibition of yeast strains with defined genetic alterations is measured as a screen for potential anti-cancer activity. Selected strains with alterations in DNA damage repair or cell cycle control were exposed to compounds and growth inhibition was measured relative to vehicle treated controls. The strain used in this assay is mec2-1
The panel holds about 79,000 compounds, 15% with a hit somewhere; the sample as a whole holds those more often.
RECORDED ENDPOINT: growth inhibition (%)
The reply should be a number in %, with the unit left off.

# example entries with known answers
COMPOUND	UNITS TEXT	growth inhibition
COc1ccc(N=Nc2ccc3oc(=O)c(C(=O)Nc4ccccc4)cc3c2)cc1	%	91.3
Cc1cc(C)c(N2C(=O)CC(Sc3ccccc3N)C2=O)c(C)c1 (stereo unspecified)	%	48.5
CCCCC(=O)c1c(O)nc2sccn2c1=O	%	85.3
Cc1cc(N=C2C=CC(=[N+](C)C)C=C2)c(N)cc1N	%	45.3
Cn1ncc2cc3c(Nc4ccc(Cl)cc4)cccc3nc21	%	8.6

I am curious: what growth inhibition value has been reported for O=C(/C=C\c1ccc([N+](=O)[O-])o1)Nc1ccc(Cl)cc1 ?
27.5

====

Assay: NCI Yeast Anticancer Drug Screen. Data for the rad18 strain (AID 177)
Details: S. cerevisiae rad18 mutant growth inhibition; at 100.0 µM; active compounds read high
About 79,000 compounds went through this panel and 15% of them were active in at least one assay; those are over-represented in the sample as a whole.
RECORDED ENDPOINT: growth inhibition (%)
The reply should be a number in %, with the unit left off.

# example entries with known answers
COMPOUND	UNITS TEXT	growth inhibition
Cc1cc(C)c(N2C(=O)CC(Sc3ccccc3N)C2=O)c(C)c1 (centres undefined)	%	-44
Nc1cc(S(N)(=O)=O)ccc1SSc1ccc(S(N)(=O)=O)cc1N	%	78
On1cnc(=S)c2[nH]cnc21	%	-67
O=C(N/N=C\c1c(Cl)cccc1Cl)N/N=C/c1c(Cl)cccc1Cl	%	-13
O/N=C/C1c2ccccc2-c2ccccc21	%	97
CCCCC(CC)C(=O)Oc1ccc(C(=O)c2ccccc2)c(O)c1 (centres undefined)	%	97
O=S1(=O)c2ccccc2N=C(c2ccccc2Cl)CC1c1ccc(F)cc1 (centres undefined)	%	22
CC(C)(C)[OH+][O-].[O-]c1ccc(Cl)cc1C=Nc1ccc(Cl)cc1[O-].[O]=[V]	%	78
c1ccc2c(c1)ccc1c3ccncc3ccc21	%	94
CC[C@@]1(OC(=O)CCC(=O)O)C(=O)OCc2c1cc1n(c2=O)Cc2cc3ccccc3nc2-1	%	81

I am curious: what growth inhibition value has been reported for CC(=O)[O-].O=C([CH-]C(=O)c1ccccc1)c1ccccc1.O=C([CH-]C(=O)c1ccccc1)c1ccccc1.[Sm+3] ?
97

I am curious: what growth inhibition value has been reported for O=C(/C=C/c1cccc(Br)c1)c1ccc(Cl)cc1 ?
84

I am curious: what growth inhibition value has been reported for [N-]=[N+]=NC(c1ccccc1)(c1ccccc1)c1ccccc1 ?
87

I am curious: what growth inhibition value has been reported for CCC(=O)N(c1ccccc1)C(C)CN1CCC(O)(c2cccc(C(F)(F)F)c2)CC1 (centres undefined) ?
69

I am curious: what growth inhibition value has been reported for O=c1[nH]c2ccccc2c2nc3ccccc3n12 ?
9

====

Measured growth inhibition values are reported for all entries that follow.
Assay: NCI Yeast Anticancer Drug Screen. Data for the bub3 strain (AID 167)
Conditions: S. cerevisiae bub3 mutant strain, at 33.0 µM, active compounds read high
The panel holds about 79,000 compounds, 15% with a hit somewhere; the sample as a whole holds those more often.
The reply should be a number in %, with the unit left off.

# example entries with known answers
COMPOUND	UNITS TEXT	TEST VALUE
CCN(CC)N=Nc1c(C(N)=O)n[nH]c1C	%	-9
O=S1(=O)c2ccccc2N=C(c2ccccc2Cl)CC1c1ccc(F)cc1 (configuration not stated)	%	-2
S=P(N1CC1)(N1CC1)N1CC1	%	-6
CCc1nc(N)nc(N)c1-c1ccc(NCCCCCCN)c([N+](=O)[O-])c1	%	17
COc1cc(CNc2ccc(C(C)C)cc2)cc(OC)c1OC	%	-6
Nc1ccc2c(c1)sc1ccccc12	%	18
COc1ccc(N)c2c1C(=O)c1ccccc1C2=O	%	19
CC(=O)CC(=O)/C=C/c1cccs1	%	21
Cc1ccc(Nc2n[nH]c(=S)s2)cc1	%	53
Cc1ccc(S(=O)(=O)Nc2ccc3c(c2)C(O)c2ccccc2-3)cc1 (configuration not stated)	%	20

I am curious: what growth inhibition value has been reported for O=c1ccc(N=Nc2ccccc2)ccc1O ?
99

I am curious: what growth inhibition value has been reported for Clc1cc(Cc2ccc(N=C/C=C/c3ccccc3)c(Cl)c2)ccc1N=C/C=C\c1ccccc1 ?
-9

====

Assay: NCI Yeast Anticancer Drug Screen. Data for the wt2 strain (AID 169);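 also: 0% = growth of vehicle-treated yeast cultures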
Conditions: S. cerevisiae wt2 strain growth inhibition; at 1.2 µM; active compounds read high
Protocol: Growth inhibition of yeast strains with defined genetic alterations is measured as a screen for potential anti-cancer activity. Selected strains with alterations in DNA damage repair or cell cycle control were exposed to compounds and growth inhibition was measured relative to vehicle treated controls. The strain used in this assay is wt2
Compounds without any hit were thinned out: in the full panel of roughly 79,000, 15% have a hit.
RECORDED ENDPOINT: growth inhibition (%)
The reply should be a number in %, with the unit left off.

I am curious: what growth inhibition value has been reported for O=[N+]([O-])c1cc(S(=O)(=O)Nc2ccccc2)ccc1Cl ?
-26

I am curious: what growth inhibition value has been reported for O=[N+]([O-])c1c(/C=N/Nc2ccccc2)oc(-c2ccc3c(c2)OCO3)c1-c1ccc2c(c1)OCO2 ?
0

I am curious: what growth inhibition value has been reported for Cn1c2nc3ccccc3c-2nc2ccccc21 ?
7

I am curious: what growth inhibition value has been reported for COc1ccc(SCc2cc(OC)ccc2OC)cc1 ?
-2

I am curious: what growth inhibition value has been reported for CCC(c1ccc(O)cc1)C(CC)c1ccc(OCCN)cc1 (configuration not stated) ?
-2
